Recorded values, source the RNAGym collection of RNA variant scans (doi:10.7554/elife.80360).

B1: CPEB3 Ribozyme (parent)
chain: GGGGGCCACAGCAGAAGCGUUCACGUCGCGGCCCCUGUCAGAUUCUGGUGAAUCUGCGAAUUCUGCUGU

Variants of: B1
Experiment: self-cleavage, relative activity (ratio to wild type); higher = more cleavage; co-transcriptional

- variant.key: "C6G A8U"
  self-cleavage: 0.149
- variant.key: "G2A U21A"
  self-cleavage: 0.114
- variant.key: "G50A U53C"
  self-cleavage: 0.949
- variant.key: "G31U A52G"
  self-cleavage: 0.775
- variant.key: "A23U A60G"
  self-cleavage: 0.642
- variant.key: "C18G U20C"
  self-cleavage: 0.0509
